Target system: E2F-1/Cyclin A interaction (Homo sapiens, UniProt P20248)
Experimental details: E2F-1/Cyclin A/cdk2 ELISA
Assay type: binding
Where no end group is shown, it is not given here.

>  <Monomer sequence>
YGRKKRRQRRRGPVKRRLDL [Tat-linear, YGRKKRRQRRRG PVKRRLDL]

>  <IC50>
100 to 1000 nM

$$$$

----------
Tested on: SW480 cells
Stated conditions: read-out: IC50 growth inhibition; SW480, 24 hr, MTS
Where no end group is shown, it is not given here.
Value type: IC50 (µM)

>  <Monomer sequence>
YGRKKRRQRRRGPVKRRLDL [Tat-linear, YGRKKRRQRRRG PVKRRLDL]

>  <Target system>
SW480 cells

>  <Value type>
IC50

>  <Unit text>
µM

>  <Result>
26

$$$$
